Origin of measurements: the supplement of paper PMC10724198

system: Saccharomyces cerevisiae; assay: protein stability index of tFT-peptide fusion (C-terminal peptide) (PSI (0-1 scale)); higher = more stable (slower turnover); details: genetic background: wild type; temperature: 37 C
readout-kind: protein stability index
One number for each entry.

Would you be so kind as to report protein stability index for each listed record?
1. YPVGAAFIRARA
2. ASGFLVIPLWVF
3. YMVESVWVLLGT
4. TLNKDILIIKCA
5. PVPPRVNLLRVS
6. SVFVFFGFIDFL
7. YSVNSLFCKVFG
8. RRAVGLANFTIK

1: 0.517; 2: 0.255; 3: 0.564; 4: 0.214; 5: 0.475; 6: 0.581; 7: 0.505; 8: 0.706

Hi! Can you tell me protein stability index for each of these sequences?
1. FFICCPLLVVCS
2. FAIPFVLFFRVT
3. YIFLLRFFFFFS
4. VFSLAFYLVLFF

1: 0.0677; 2: 0.231; 3: 0.435; 4: 0.418

Each sequence below has a reported value. Please supply its protein stability index.
1. PSFSLLRSLTLI
2. PLVLPPINLFLV
3. LLLPVFRFFFVN
4. SVLASFFSAFVC
5. FFACSLLFVLVF
6. WLGLFAFRRCLV

1: 0.413; 2: 0.136; 3: 0.143; 4: 0.149; 5: 0.226; 6: 0.398

For each of the sequences below, note its protein stability index.
1. VCPWGYCSEWGF
2. GIPVRRLLFLVA
3. AVTMSYQCGIFI
4. WFWVAVGVVGGG
5. ICWVSLYFSMLV
6. HNLIRKHAKESS

[0.789, 0.311, 0.68, 0.5, 0.464, 0.459]

Below are 8 sequences. Give each one its protein stability index.
1. VQWPLLVVGCMG
2. SSGSLLLPRFLT
3. ALVWYSLSIIVN
4. LLWALGLVLVEG
5. SGMLVYFGTVCY
6. PCTFYLFWMFFV
7. KLLGVLFVLFPG
8. WALVLLVPVWFD

1: 0.361; 2: 0.54; 3: 0.0736; 4: 0.281; 5: 0.511; 6: 0.328; 7: 0.527; 8: 0.533

For every item below, please supply its protein stability index.
1. CLWLRCIVSILP
2. TFLCSSLALAVI
3. VVISRVLAIRLL
4. LSLCPVHRLLVL
5. ICQLLKFPLFWC
6. SNFFPVPLLLFR
7. SPLHGFLFLVLL

0.304
0.479
0.228
0.533
0.492
0.327
0.496

// for each sequence in input: emit protein stability index
1. VWYSCWSFLVLF
2. RVGGVVVLGCVG

[0.362, 0.671]

----------
tested on: Saccharomyces cerevisiae; experiment: protein stability index of tFT-peptide fusion (C-terminal peptide) (PSI (0-1 scale)); higher = more stable (slower turnover); settings: genetic background: cdc34-1; temperature: 37 C
Tag: 1 if measured protein stability index is not below 0.5, 0 if it is.

These recorded examples may help you get a feel for the data.
residue-codes	label-value
RRPVHTHTSVSP	1
ICSRCLVTVLSC	0

Decide: protein stability index of TFLCSSLALAVI >= 0.5?
0

Quick check: does LFGFLCVVMCCG have protein stability index greater than or equal to 0.5?
1

----------
Would you kindly list protein stability index for each of these sequences?
tested on: Saccharomyces cerevisiae; assay: protein stability index of tFT-peptide fusion (C-terminal peptide) (PSI (0-1 scale)); higher = more stable (slower turnover); details: genetic background: wild type; temperature: 30 C
Give bare numbers.

residue-codes	readout-kind	experimental-result
LSGLQGPGVSCC	protein stability index	0.642

Below are 6 sequences. Give each one its protein stability index.
1. PPAPHPHLPSSY
2. LIFPPLPPLPPR
3. DDSFNPWSVRVH
4. SLNLFFYVNPRF
5. EKNDMKKKKNRQ
6. TRRLILSPIRHF

1: 0.685; 2: 0.754; 3: 0.715; 4: 0.686; 5: 0.713; 6: 0.636

----------
For each record, write down the corresponding protein stability index.
tested on: Saccharomyces cerevisiae; experiment: protein stability index of tFT-peptide fusion (C-terminal peptide) (PSI (0-1 scale)); higher = more stable (slower turnover); conditions: genetic background: das1 deletion; temperature: 30 C
Give bare numbers.

Please review the entries below; each comes with its answer.
residue-codes	system-tested	protein stability index
SFTVFVVLLFPP	Saccharomyces cerevisiae	0.284
GRRPVVDFLPCL	Saccharomyces cerevisiae	0.697
FYPLPASIPDFA	Saccharomyces cerevisiae	0.67
FSICGFYSLCFG	Saccharomyces cerevisiae	0.503
FFALYGHILGLF	Saccharomyces cerevisiae	0.611

Dear reader, for each entry below, please note its protein stability index.
1. LEYCLATYLSAC
2. VVIWWFSAVVSV
3. YILIKEVLYAVC
4. WSMSSPPLLLAS
5. VAFLWVAFCFSG

1: 0.25; 2: 0.0727; 3: 0.182; 4: 0.272; 5: 0.224

----------
test system: Saccharomyces cerevisiae; test: protein stability index of tFT-peptide fusion (C-terminal peptide) (PSI (0-1 scale)); higher = more stable (slower turnover); conditions: genetic background: das1 deletion; temperature: 30 C
readout-kind: protein stability index
Give bare numbers.

See these solved cases before continuing.
residue-codes	system-tested	readout-kind	experimental-result
DRIAAQTLEEDE [RPS19A C-terminal 12 aa]	Saccharomyces cerevisiae	protein stability index	0.687
VKHQPKTYRTKK [SGO1 C-terminal 12 aa]	Saccharomyces cerevisiae	protein stability index	0.676
LKSATESFVATF [ATP1 C-terminal 12 aa]	Saccharomyces cerevisiae	protein stability index	0.701
SPVPTKKKGFLR [CDC3 C-terminal 12 aa]	Saccharomyces cerevisiae	protein stability index	0.705
PCTASITSLISF [YDR269C C-terminal 12 aa]	Saccharomyces cerevisiae	protein stability index	0.709
SPELHTYETIYD [ROY1 C-terminal 12 aa]	Saccharomyces cerevisiae	protein stability index	0.752
FGIKKNDLKKSN [GSF2 C-terminal 12 aa]	Saccharomyces cerevisiae	protein stability index	0.708
EEEKRHGINLKC [GUP2 C-terminal 12 aa]	Saccharomyces cerevisiae	protein stability index	0.691

// for each sequence below, give its protein stability index
1. RESINEAKLRHT [BDH2 C-terminal 12 aa]
2. STKTVPLNFLFL [YDL050C C-terminal 12 aa]
3. IVNIKILRRNSR [LDB16 C-terminal 12 aa]
4. GGKIFSLKLTLI [YPR108W-A C-terminal 12 aa]

1: 0.676; 2: 0.724; 3: 0.796; 4: 0.673

----------
Would you mind telling me the reported protein stability index of each entry?
system: Saccharomyces cerevisiae; assay: protein stability index of tFT-peptide fusion (C-terminal peptide) (PSI (0-1 scale)); higher = more stable (slower turnover); conditions: genetic background: das1 deletion; temperature: 30 C
Answers are plain numbers.

residue-codes	protein stability index
STKFLRSFGQTI [SWP1 C-terminal 12 aa]	0.707
NSSSNESIQVVV [SFK1 C-terminal 12 aa]	0.706
LTQVEKPRGIFD [DDC1 C-terminal 12 aa]	0.71
SNYGGNSTWGGH [SPT5 C-terminal 12 aa]	0.732
SRKHTTRSGGRW [HOS3 C-terminal 12 aa]	0.695
VVPAVLFAFLLV [YDL118W C-terminal 12 aa]	0.446
DRCKEAVDHLMS [ISM1 C-terminal 12 aa]	0.686
LTILRISELSMN [MRPL49 C-terminal 12 aa]	0.705

Consider the following items and state reported protein stability index for each.
1. LNWVFSFYSCSE [YIL163C C-terminal 12 aa]
2. EFLQIMKARISK [SEC24 C-terminal 12 aa]
3. PFPLLRLSAPFK [OST3 C-terminal 12 aa]
4. RSLLRKSKPLQA [RPM2 C-terminal 12 aa]

1. 0.68
2. 0.686
3. 0.72
4. 0.675

----------
Please go through the items and note down their protein stability index.
system: Saccharomyces cerevisiae; test: protein stability index of tFT-peptide fusion (C-terminal peptide) (PSI (0-1 scale)); higher = more stable (slower turnover); conditions: genetic background: wild type; temperature: 30 C
One number for each entry.

residue-codes	protein stability index
ANEALQHILDDS [INO2 C-terminal 12 aa]	0.69
NKKPKNKKKGRK [SRP72 C-terminal 12 aa]	0.646
PWFAPIREQIEK [CKA1 C-terminal 12 aa]	0.749
QGMLQSFLDREL [YOL057W C-terminal 12 aa]	0.666
NFQTHYRDELLQ [REH1 C-terminal 12 aa]	0.584

List the reported protein stability index of each sequence below.
1. KVETVLNKMFEK [REC114 C-terminal 12 aa]
2. AIWKHGIVEEKI [TMA19 C-terminal 12 aa]
3. ALGEHYNSLHDS [OTU2 C-terminal 12 aa]
4. ITLAELDVGDSE [CAF130 C-terminal 12 aa]
5. LHVVSSAYFEIQ [YEL075C C-terminal 12 aa]
6. GKVAKYIFDNIC [BNA7 C-terminal 12 aa]

[0.687, 0.694, 0.653, 0.712, 0.626, 0.722]

Below are 7 sequences. Give each one its protein stability index.
1. LRNQSPFTSSNE [YKL107W C-terminal 12 aa]
2. IARPFELKYFGR [FCY21 C-terminal 12 aa]
3. ELDDILGSDSDF [MPH1 C-terminal 12 aa]
4. DSDLFFVAEAIS [YIL032C C-terminal 12 aa]
5. VSLLLNSLALFF [YGL204C C-terminal 12 aa]
6. WDKQKALERRSV [CNS1 C-terminal 12 aa]
7. PIRTPDAKKPKI [BUR2 C-terminal 12 aa]

1. 0.682
2. 0.718
3. 0.684
4. 0.703
5. 0.662
6. 0.705
7. 0.8

Could I get protein stability index for every one of these entries?
1. NNIKWYLHWKFI [VPR1 C-terminal 12 aa]
2. KQIAKQSSKMMK [VMR1 C-terminal 12 aa]
3. SRIYQTFTDPSN [ADY4 C-terminal 12 aa]
4. KKKFYKQYHFDL [PDR8 C-terminal 12 aa]
5. LNWVFSFYSCSE [YIL163C C-terminal 12 aa]

1: 0.168; 2: 0.708; 3: 0.702; 4: 0.727; 5: 0.688

Please give protein stability index for each item listed below.
1. PLWNQRRDDLFH [NIT2 C-terminal 12 aa]
2. LSIFGFDMFNRK [YMR1 C-terminal 12 aa]

[0.744, 0.703]
